Target: T1, human IL-13 R130Q variant (R110Q of the mature chain) (human, UniProt P35225 35-146, Biotinylated on amines (NHS-LC-biotin, 4:1) in ELISA, panning and competition assays. The letters are unchanged.)
T1 construct: R130Q counts from Met 1 of the signal peptide, R110Q on the mature chain; Bought from Peprotech; also called IL-13 R110Q; b-R130Q
T1 sequence (P35225 35-146 limits assumed, stated change not applied): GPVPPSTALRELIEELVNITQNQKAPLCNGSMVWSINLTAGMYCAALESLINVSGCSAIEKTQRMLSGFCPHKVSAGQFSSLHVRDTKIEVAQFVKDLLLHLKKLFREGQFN
Experiment: single-point (10 nM) phage Fab ELISA on biotinylated IL-13 R130Q
Reported Signal (% of Lc16Hc7) is given for each of the following binders.

- binder: "Fab clone 1C07 (IL-13-62 library) (Fab, V domains shown, Fab on phage pIX) VH: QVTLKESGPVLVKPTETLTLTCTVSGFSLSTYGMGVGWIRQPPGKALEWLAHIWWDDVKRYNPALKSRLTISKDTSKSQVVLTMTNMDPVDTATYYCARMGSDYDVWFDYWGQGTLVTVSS VL: EIVLTQSPATLSLSPGERATLSCRASKSISKYLAWYQQKPGQAPRLLIYSGSTLQSGIPARFSGSGSGTDFTLTISSLEPEDFAVYYCQQHESGPYTFGQGTKLEIK"
  readoutName: "Signal (% of Lc16Hc7)"
  reported: "136%"

Moving on to the next binder.
(Q) Which value of Signal (% of Lc16Hc7) has been reported for Fab clone 3G01 (IL-13-62 library) (Fab, V domains shown, Fab on phage pIX) VH: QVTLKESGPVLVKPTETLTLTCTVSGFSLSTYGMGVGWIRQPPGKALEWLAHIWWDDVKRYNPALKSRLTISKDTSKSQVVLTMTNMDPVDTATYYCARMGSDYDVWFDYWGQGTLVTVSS VL: EIVLTQSPATLSLSPGERATLSCRASKSISKYLAWYQQKPGQAPRLLIYSGSTLQSGIPARFSGSGSGTDFTLTISSLEPEDFAVYYCQQQDLGPYTFGQGTKLEIK in the records?
(A) 122%

FYI, the data here is from patent US20120045438A1.
